Exercise: for every item that follows, state its recorded moDC activation (IL-12p70, pg/mL).
test system: human CD40 on cells (human, UniProt P25942 21-277); also: test concentration or dose not given here
Sequence (P25942 21-277 limits assumed): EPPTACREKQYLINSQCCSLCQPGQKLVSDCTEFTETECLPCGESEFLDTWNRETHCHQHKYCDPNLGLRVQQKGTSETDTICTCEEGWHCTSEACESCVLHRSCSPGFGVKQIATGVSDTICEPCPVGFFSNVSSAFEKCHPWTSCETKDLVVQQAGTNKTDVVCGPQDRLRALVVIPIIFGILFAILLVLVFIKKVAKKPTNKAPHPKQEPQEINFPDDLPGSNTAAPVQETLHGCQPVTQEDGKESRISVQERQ
experimental details: cell-based or functional assay
Numbers only, in pg/mL.

binder	endpoint	unit name	data value
AD175.14.11 (antibody, V domains shown, mouse hybridoma monoclonal; also called muAb3) VH: EVQLQQSGPELVKPGASVKISCKASGYTFTDYYMNWVKQSHGKSLEWIGDINPNNGGTSYNQKFKGKATLTVDKSSSTAYMELRSLTSEDSAVYYCARRGGLGRGTYALDYWGQGTSVTVSS VL: DIQMTQTTSSLSASLGDRVTISCRASQDISNYLNWYQQKPDGTVKPLIYYTSRLHLGVPSRFSGSGSGTDYSLTISNLEQEDIATYFCQQGNTLPLTFGAGTKLELK	moDC activation (IL-12p70, pg/mL)	pg/mL	0
AD163.9.3 (antibody, V domains shown, mouse hybridoma monoclonal; also called muAb1) VH: QVQLQQPGAELVKPGASVKMSCKASGYTFTSYWITWVKQRPGQGLEWIGEINPGSGSTNYNEKFKSKATLTVDTSSSTAYMQLSSLTSEDSAVYYCARNRGTGDYWGQGTTLTVSS VL: DVVMTQTPLSLPVSLGDQASISCRSSQSLVHSYGNTYLHWYLQKPGQSPKFLIYKVSNRISGVPDRLSGSGSGTDFTLKISRVEPEDLGVYFCSQSTHVPYTFGGGTKLEIK	moDC activation (IL-12p70, pg/mL)	pg/mL	2220

Kindly review the next binder as well.
In: Quick check: moDC activation (IL-12p70, pg/mL) of AD164.14.6 (antibody, V domains shown, mouse hybridoma monoclonal; also called muAb9) VH: DVQLQESGPGLVKPSQSLSLTCSVTGYSITSNYYWNWIRQFPGNKLEWMGYIRYDGSNNYNPSLKNRISITRDTSKNQFFLKLNSVTTEDTATYYCARLDYWGQGTTLTVSS VL: DAVMTQTPLSLPVSLGDQASISCRSSQSLENTNGNTFLNWFLQKPGQSPQLLIYRVSNRFSGVPDRFSGSGSGTDFTLKISRVEAEDLGVYFCLQVTHVPFTFGSGTKLEIK ?
Out: 878
